Reported CC50 values, LOX IMVI.
Give just the numeric value; µM need not be written.

# Compound smiles, Readout units, CC50
data = [
    ("C=C1C(=O)O[C@H]2[C@H]1CC/C(COC(=O)CCC(=O)NCCCCCCCCNC(=O)CCC(=O)OC/C1=C/CC[C@@]3(C)O[C@H]3[C@H]3OC(=O)C(=C)[C@@H]3CC1)=C\\CC[C@@]1(C)O[C@@H]21", "µM", 5.56),
]

For the next question, use this compound.
Prompt: What value of CC50 has been reported for the following compound? C=C1C(=O)O[C@H]2[C@H]1CC/C(COC(=O)CCC(=O)NCCCCCCCCCNC(=O)CCC(=O)OC/C1=C/CC[C@@]3(C)O[C@H]3[C@H]3OC(=O)C(=C)[C@@H]3CC1)=C\CC[C@@]1(C)O[C@@H]21
Completion: 4.06

----------
# Test system: HCT-15
Metric name: CC50 (µM)
Give just the numeric value; µM need not be written.

# Compound, Assay result
measured = [
    ("C=C1C(=O)O[C@H]2[C@H]1CC/C(COC(=O)CCC(=O)NCCCCCCCCNC(=O)CCC(=O)OC/C1=C/CC[C@@]3(C)O[C@H]3[C@H]3OC(=O)C(=C)[C@@H]3CC1)=C\\CC[C@@]1(C)O[C@@H]21 [JVM 2-87]", 43.2),
]

For the next question, use this compound.
Prompt: What value of CC50 has been reported for the following compound? C=C1C(=O)O[C@H]2[C@H]1CC/C(COC(=O)CCC(=O)NCCCCCCCCCNC(=O)CCC(=O)OC/C1=C/CC[C@@]3(C)O[C@H]3[C@H]3OC(=O)C(=C)[C@@H]3CC1)=C\CC[C@@]1(C)O[C@@H]21 [JVM 2-92]
Completion: 46

----------
# System: EKVX
# Assay notes: NCI 60 cell line five dose, Non-Small Cell Lung Cancer
# Format: cell-based, human
# Experimental context: molar, read-out: LC50 (the source's name)
Metric name: CC50 (µM)
Give just the numeric value; µM need not be written.

Prompt: What value of CC50 has been reported for the following compound? C=C1C(=O)O[C@H]2[C@H]1CC/C(COC(=O)NCCCCCCCCNC(=O)OC/C1=C/CC[C@@]3(C)O[C@H]3[C@H]3OC(=O)C(=C)[C@@H]3CC1)=C\CC[C@@]1(C)O[C@@H]21
Completion: 4.99

----------
# System: UO-31
# Assay notes: NCI 60 cell line five dose, Renal Cancer
# Experimental context: read-out: LC50, molar
Metric name: CC50

Prompt: What value of CC50 has been reported for the following molecule? C=C1C(=O)O[C@H]2[C@H]1CC/C(COC(=O)NCCCCCCCCNC(=O)OC/C1=C/CC[C@@]3(C)O[C@H]3[C@H]3OC(=O)C(=C)[C@@H]3CC1)=C\CC[C@@]1(C)O[C@@H]21
Completion: 4.9 µM

----------
Reported CC50 values, SN12C.
Give just the numeric value; µM need not be written.

# Compound smiles, Readout units, CC50
rows = [
    ("C=C1C(=O)O[C@H]2[C@H]1CC/C(COC(=O)CCC(=O)NCCCCCCCCNC(=O)CCC(=O)OC/C1=C/CC[C@@]3(C)O[C@H]3[C@H]3OC(=O)C(=C)[C@@H]3CC1)=C\\CC[C@@]1(C)O[C@@H]21", "µM", 53.8),
]

For the next question, use this compound.
Prompt: What value of CC50 has been reported for the following compound? C=C1C(=O)O[C@H]2[C@H]1CC/C(COC(=O)CCC(=O)NCCCCCCCCCNC(=O)CCC(=O)OC/C1=C/CC[C@@]3(C)O[C@H]3[C@H]3OC(=O)C(=C)[C@@H]3CC1)=C\CC[C@@]1(C)O[C@@H]21
Completion: 49.7
